Origin of the recorded values: patent US9073819B2

Consider the following compounds; for each one, report its % Recovery.
tested-on: NMDA-D (NR1/2D) receptors (Homo sapiens, UniProt O15399+Q05586)
Sequence (O15399 28-1336, other chains not shown): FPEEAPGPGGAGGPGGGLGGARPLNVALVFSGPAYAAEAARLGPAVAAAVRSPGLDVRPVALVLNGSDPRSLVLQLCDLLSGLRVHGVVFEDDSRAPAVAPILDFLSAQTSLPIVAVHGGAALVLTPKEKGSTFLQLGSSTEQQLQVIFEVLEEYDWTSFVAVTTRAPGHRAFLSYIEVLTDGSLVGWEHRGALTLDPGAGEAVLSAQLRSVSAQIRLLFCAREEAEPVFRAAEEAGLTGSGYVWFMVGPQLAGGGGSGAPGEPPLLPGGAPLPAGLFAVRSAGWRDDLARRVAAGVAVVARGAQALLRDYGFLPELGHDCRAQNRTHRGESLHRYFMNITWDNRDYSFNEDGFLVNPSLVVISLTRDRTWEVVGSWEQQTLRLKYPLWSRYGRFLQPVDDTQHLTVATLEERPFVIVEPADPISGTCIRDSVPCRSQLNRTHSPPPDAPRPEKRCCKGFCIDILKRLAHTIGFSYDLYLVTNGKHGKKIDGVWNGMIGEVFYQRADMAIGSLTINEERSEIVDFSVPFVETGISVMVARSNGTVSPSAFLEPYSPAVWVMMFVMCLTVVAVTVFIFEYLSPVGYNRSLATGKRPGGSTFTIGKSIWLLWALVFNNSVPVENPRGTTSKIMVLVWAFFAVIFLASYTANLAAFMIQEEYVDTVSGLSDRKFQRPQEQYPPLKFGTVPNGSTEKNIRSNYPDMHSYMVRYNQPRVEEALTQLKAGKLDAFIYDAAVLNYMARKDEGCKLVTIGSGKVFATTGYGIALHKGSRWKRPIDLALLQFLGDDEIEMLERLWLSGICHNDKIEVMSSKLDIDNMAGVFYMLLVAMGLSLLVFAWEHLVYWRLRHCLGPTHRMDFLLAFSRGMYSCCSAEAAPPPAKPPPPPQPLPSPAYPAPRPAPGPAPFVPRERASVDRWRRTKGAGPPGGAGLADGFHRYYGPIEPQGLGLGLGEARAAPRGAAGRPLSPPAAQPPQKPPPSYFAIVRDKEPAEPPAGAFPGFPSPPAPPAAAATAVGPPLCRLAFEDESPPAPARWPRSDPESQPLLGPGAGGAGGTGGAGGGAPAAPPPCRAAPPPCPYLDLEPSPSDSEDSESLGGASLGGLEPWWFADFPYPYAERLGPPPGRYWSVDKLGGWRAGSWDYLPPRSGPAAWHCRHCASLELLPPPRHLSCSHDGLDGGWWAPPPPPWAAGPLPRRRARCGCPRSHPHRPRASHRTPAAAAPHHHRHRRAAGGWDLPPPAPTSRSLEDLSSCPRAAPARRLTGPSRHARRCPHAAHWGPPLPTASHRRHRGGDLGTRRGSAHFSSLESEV
method-notes: Antagonist activity on NMDA receptors (current blockade and recovery)
measurement-context: NMDA-D (NR1/2D); drug concentration 50 μM; current post drug treatment
Give bare numbers, in %.

Worked set:
CNC1(c2ccccc2Cl)CCCCC1=O (centres unmarked) [Ketamine, reference compound] = 26.19
c1ccc(C2(N3CCCCC3)CCCCC2)cc1 [PCP, Phencyclidine, reference compound] = 66.666
CNC1(c2ccccc2Cl)CCCC/C1=N\OCc1ccccc1 (centres unmarked) [Benzoxime] = 79.452
CNC1(c2ccccc2Cl)CCCC/C1=N\O (centres unmarked) [Oxime] = 52.272

Moving on to the next compound.
### Prompt Name the recorded % Recovery for CNC1(c2ccccc2Cl)CCCC/C1=N\OC (centres unmarked) [Methoxime] .
### Response 82.5
